B1: LINE1-full (parent)
chain: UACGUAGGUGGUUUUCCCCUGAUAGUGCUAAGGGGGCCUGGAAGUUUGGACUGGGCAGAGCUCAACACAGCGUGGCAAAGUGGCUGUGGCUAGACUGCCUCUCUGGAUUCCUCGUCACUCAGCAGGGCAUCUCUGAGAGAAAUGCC

Variants of: B1
Assay: self-cleavage, relative activity (ratio to wild type); higher = more cleavage; in vitro, sequencing; the parent is a self-cleaving ribozyme
Is self-cleavage at least 1? Then Y. If not, N.

Known results for variants:
| alteration | answer.label |
| --- | --- |
| A117C C128U | Y |
| U15C G48A | Y |
| C19G G126A | N |
| U73C A77G | Y |
| U12C U15C | Y |
| U102C C128A | N |

## Task Kindly determine if self-cleavage recorded for A22G A141G is above or exactly 1.
## Result Y

## Task Check the entry U47A U119C : does self-cleavage equal or exceed 1?
## Result Y

## Task Quick check, self-cleavage >= 1? A6G U115A
## Result N

## Task Kindly determine if self-cleavage recorded for U1A A67C is above or exactly 1.
## Result N

## Task hey, is self-cleavage for this one >= 1? G135A A136G
## Result Y
